Test: Chemical stability of salts exposed to heat and moisture, measured by HPLC
Type: physicochemical
Settings: before exposure (baseline of stability study)
measured attribute: Initial purity (%)
Write the answer as a number in %, unit excluded.

Q: Give Initial purity for the following compound: FC(F)(F)c1cccc(C2=CCN(CCc3ccc4ccncc4c3)CC2)c1.O=S(=O)(O)c1ccccc1 [Besylate]
Ans: 98.2

Q: Specify reported Initial purity for the compound shown: FC(F)(F)c1cccc(C2=CCN(CCc3ccc4ccncc4c3)CC2)c1.O=S(=O)(O)c1ccccc1.O=S(=O)(O)c1ccccc1 [Dibesylate]
Ans: 97.5

Q: Answer with reported Initial purity of FC(F)(F)c1cccc(C2=CCN(CCc3ccc4ccncc4c3)CC2)c1.O=S(=O)(O)O.O=S(=O)(O)O [Dihydrogensulfate]
Ans: 93.3

Q: Supply reported Initial purity belonging to this compound: Cl.Cl.FC(F)(F)c1cccc(C2=CCN(CCc3ccc4ccncc4c3)CC2)c1 [Dihydrochloride]
Ans: 97.0
